Biological target: human M4 muscarinic acetylcholine receptor (Homo sapiens, UniProt P08173)
Sequence (P08173 1-479): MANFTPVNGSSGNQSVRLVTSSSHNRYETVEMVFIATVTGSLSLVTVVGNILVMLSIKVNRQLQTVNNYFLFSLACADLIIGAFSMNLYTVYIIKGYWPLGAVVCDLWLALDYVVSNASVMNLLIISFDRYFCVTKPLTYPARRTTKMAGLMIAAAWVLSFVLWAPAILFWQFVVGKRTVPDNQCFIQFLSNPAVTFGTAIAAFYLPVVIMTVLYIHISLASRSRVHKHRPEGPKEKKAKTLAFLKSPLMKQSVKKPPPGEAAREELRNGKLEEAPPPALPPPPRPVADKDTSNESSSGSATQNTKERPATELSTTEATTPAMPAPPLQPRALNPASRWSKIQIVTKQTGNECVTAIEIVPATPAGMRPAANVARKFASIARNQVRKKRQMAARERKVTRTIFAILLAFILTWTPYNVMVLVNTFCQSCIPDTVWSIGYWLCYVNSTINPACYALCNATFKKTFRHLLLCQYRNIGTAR
Assay: human FLIPR-based M4 PAM assay (calcium mobilization, CHO-K1 cells with human M4 receptor and Gαqi5)
Settings: inflection point (IP) of dose response curve, acetylcholine added at 20% of maximum response, read-out: M4 FLIPPR Hu IP
parameterMeasured: EC50 (nM)

For orientation, consider the following solved cases.
# compound, val
records = [
    ("Cc1cn2ccc(-c3nc(C#N)ccc3-c3cnc(CC4(O)CCCC4)o3)cc2n1", 230),
    ("CC(C)(Cc1ncc(-c2ccc(C(F)F)nc2-c2ccc3cccnc3c2)o1)C(F)(F)F", 136),
    ("Cc1cn2ccc(-c3nc(C#N)ccc3-c3cnc(CC4(F)CCCC4)o3)cc2n1", 31),
    ("CC(C)(C)Cc1ncc(-c2ccc3cncn3c2-c2ccn3ccnc3c2)o1", 75),
    ("CN1Cc2ncc(-c3nc(C(F)F)ccc3-c3cnc(CC(C)(C)C)o3)cc2C1=O", 163),
]

1 = Cc1cn2ccc(-c3nc(C#N)ccc3-c3cnc(CC4CC4)o3)cc2n1
2 = COCc1cn2ccc(-c3nc(C#N)ccc3-c3cnc(CC4CC4)o3)cc2n1
3 = N#Cc1ccc(-c2cnc(CC(F)C3CC3)o2)c(-c2ccc3cccnc3c2)n1 (centres unmarked) [Example 69]
Q: Sequence the entries by EC50, beginning with the highest number. Labels, ranked as asked.
Result: 2, 1, 3
(2: 137 nM, 1: 79 nM, 3: 41 nM)

---

molecular target: human M4 muscarinic acetylcholine receptor (Homo sapiens, UniProt P08173); test: human FLIPR-based M4 PAM assay (calcium mobilization, CHO-K1 cells with human M4 receptor and Gαqi5); settings: inflection point (IP) of dose response curve, acetylcholine added at 20% of maximum response, read-out: M4 FLIPPR Hu IP
parameterMeasured: EC50 (nM)

# compound, measuredTarget, parameterMeasured, unitDescriptor, val
measured = [
    ("CC1(Cc2ncc(-c3ccc(C#N)nc3N3CCn4ccnc4C3)o2)CCCC1", "human M4 muscarinic acetylcholine receptor (Homo sapiens, UniProt P08173)", "EC50", "nM", 108),
]

a = CN1Cc2ccc(-c3nc(F)ccc3-c3cnc(CC4(C)CCCC4)o3)cc2C1=O
b = CC1(Cc2ncc(-c3cc4c(nc3-c3ccc5ccc(F)nc5c3)C(O)CC4)o2)CCCC1 (stereo not shown)
Q: Field: lower recorded EC50 (choose a or b ) Output the label that corresponds to your choice.
Result: a

A = Cc1ccc(-c2cnc(CC3CCCC3)o2)c(-c2ccc3c(c2)C(=O)N(C)C3)n1
B = CC(C)(C)Cc1ncc(-c2ccc(C#N)nc2-c2ccn3ccnc3c2)o1
Q: Could you tell me which of these two has the smaller EC50 figure? First: A Second: B To answer, give the label that identifies your chosen option.
Result: A
(A: 13 nM, B: 61 nM)

A = Cc1cn2ccc(-c3nc(C#N)ccc3-c3cnc(CC(O)C(C)C)o3)cc2n1 (stereo not shown)
B = N#Cc1ccc(-c2cnc(CC3CCCC3)o2)c(N2CCn3ccnc3C2)n1 [Example 55]
Q: When their EC50 values are compared, which is larger, A or B ? To answer, give the label that identifies your chosen option.
Result: A

---

Molecular target: human M4 muscarinic acetylcholine receptor (Homo sapiens)
Sequence (P08173 1-479): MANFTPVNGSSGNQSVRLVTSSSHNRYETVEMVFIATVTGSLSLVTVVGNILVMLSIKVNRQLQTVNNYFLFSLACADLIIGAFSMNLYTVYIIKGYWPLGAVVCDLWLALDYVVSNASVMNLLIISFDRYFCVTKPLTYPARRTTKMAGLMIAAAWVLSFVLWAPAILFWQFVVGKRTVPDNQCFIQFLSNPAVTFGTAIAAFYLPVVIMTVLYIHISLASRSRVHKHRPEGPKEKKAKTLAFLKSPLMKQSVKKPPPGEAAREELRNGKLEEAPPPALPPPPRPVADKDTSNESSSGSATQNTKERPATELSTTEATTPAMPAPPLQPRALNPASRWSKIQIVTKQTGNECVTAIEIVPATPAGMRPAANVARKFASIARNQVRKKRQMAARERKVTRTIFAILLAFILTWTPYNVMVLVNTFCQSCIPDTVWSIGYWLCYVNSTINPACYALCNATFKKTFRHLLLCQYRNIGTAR
Assay: human FLIPR-based M4 PAM assay (calcium mobilization, CHO-K1 cells with human M4 receptor and Gαqi5)
Settings: inflection point (IP) of dose response curve, acetylcholine added at 20% of maximum response, read-out: M4 FLIPPR Hu IP
pEC50: −log10 of the molar value.
parameterMeasured: pEC50

# compound, val
records = [
    ("CC(C)(C)CCc1ncc(-c2ccc(C#N)nc2-c2ccn3ccnc3c2)o1 [Example 66]", 7.38),
    ("CN1Cc2ccc(-c3ncccc3-c3cnc(CC4CCCC4)o3)cc2C1=O [Example 3]", 7.38),
    ("CC(C)(C)Cc1ncc(-c2ccc(C#N)nc2-c2cnc3c(c2)C(=O)N(CC2CC2)C3)o1 [Example 39]", 7.03),
]

A = CC(C)(F)CCc1ncc(-c2ccc(C#N)nc2-c2ccc3cccnc3c2)o1 [Example 103]
B = CC1(Cc2ncc(-c3ccc(C#N)nc3-c3ccc4cccnc4c3)o2)CCCC1 [Example 7]
Q: Compare the recorded pEC50 of A and B ; state which is larger. Reply with the label of the item you choose.
Result: B
(B: 7.47, A: 7.07)

I = CC(C)(C)CCc1ncc(-c2ccc(C#N)nc2-c2ccc3cccnc3c2)o1 [Example 65]
II = N#Cc1ccc(-c2cnc(CC(O)C3CC3)o2)c(-c2ccc3cccnc3c2)n1 (centres unmarked) [Example 68]
Q: Hi team, can someone confirm which has the larger pEC50: I or II ? Thanks. Reply with the label of the item you choose.
Result: I
(I: 7.02, II: 6.64)

---

Molecular target: human M4 muscarinic acetylcholine receptor (Homo sapiens)
Sequence (P08173 1-479): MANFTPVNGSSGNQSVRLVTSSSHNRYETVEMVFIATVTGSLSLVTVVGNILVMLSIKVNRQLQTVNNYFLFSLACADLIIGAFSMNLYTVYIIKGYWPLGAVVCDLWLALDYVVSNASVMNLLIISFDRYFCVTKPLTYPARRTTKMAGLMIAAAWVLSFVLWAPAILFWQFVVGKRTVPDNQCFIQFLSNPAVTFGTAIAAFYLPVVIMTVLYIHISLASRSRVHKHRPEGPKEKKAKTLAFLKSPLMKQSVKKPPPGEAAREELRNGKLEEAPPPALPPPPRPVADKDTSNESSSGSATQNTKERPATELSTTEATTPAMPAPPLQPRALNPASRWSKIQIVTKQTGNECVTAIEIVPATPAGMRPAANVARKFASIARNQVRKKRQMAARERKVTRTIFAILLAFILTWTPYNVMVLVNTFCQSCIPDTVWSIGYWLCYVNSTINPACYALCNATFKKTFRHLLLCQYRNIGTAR
Assay: human FLIPR-based M4 PAM assay (calcium mobilization, CHO-K1 cells with human M4 receptor and Gαqi5)
Conditions: inflection point (IP) of dose response curve, acetylcholine added at 20% of maximum response, read-out: M4 FLIPPR Hu IP
parameterMeasured: EC50 (nM)

Look over these answered cases.
# molecule, measuredTarget, EC50 [nM]
records = [
    ("Cc1nc2cc(-c3nc(C#N)ccc3-c3cnc(CC(C)(C)C(F)(F)F)o3)ccn2n1", "human M4 muscarinic acetylcholine receptor (Homo sapiens)", 118),
    ("CC1(Cc2ncc(-c3cc4c(nc3-c3cnc5c(c3)C(=O)NC5)C(F)CC4)o2)CCCC1 (single isomer, unassigned) [Example 44]", "human M4 muscarinic acetylcholine receptor (Homo sapiens)", 24),
    ("CN1Cc2ncc(-c3nc(C#N)ccc3-c3cnc(CC4(C)CCCC4)o3)cc2C1=O", "human M4 muscarinic acetylcholine receptor (Homo sapiens)", 34),
    ("N#Cc1ccc(-c2cnc(CC3CCCC3)o2)c(N2CCn3ccnc3C2)n1 [Example 58]", "human M4 muscarinic acetylcholine receptor (Homo sapiens)", 17),
    ("CC(C)(C)Cc1ncc(-c2ccc(C#N)nc2-c2ccc3cccnc3c2)o1", "human M4 muscarinic acetylcholine receptor (Homo sapiens)", 69),
]

I = Clc1ccc(-c2cnc(CC3CCCC3)o2)c(N2CCn3ccnc3C2)n1
II = CC1(Cc2ncc(-c3ccc(C#N)nc3-c3cnc4c(c3)C(=O)N(CCF)C4)o2)CCCC1
III = CN1Cc2ccc(-c3nc4c(cc3-c3cnc(CC5(C)CCCC5)o3)CCC4)cc2C1=O
IV = CC(=O)OC1CCc2cc(-c3cnc(CC4(C)CCCC4)o3)c(-c3ccc4ccc(F)nc4c3)nc21 (stereo not drawn)
V = COc1cc2ccc(-c3nc(C)ccc3-c3cnc(Cc4ccccc4F)o3)cc2nn1
Q: Kindly order the items shown according to EC50, from the highest value down. Output spec: a listing of the labels in the requested order.
Result: IV, I, II, III, V
(IV: 170 nM, I: 117 nM, II: 52 nM, III: 30 nM, V: 19 nM)
